- subject of test: T1, 4H462-bN
- T1 chain: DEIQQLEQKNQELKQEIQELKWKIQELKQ
- test description: two-hybrid library CCNG1;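 note: natural log of median RNA to DNA barcode read ratio; higher means stronger binding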
test readout: interaction score

>  <binder>
DKNQQLKQENQELKQEIQELEWKIQELKQ [4H3782-bN]

>  <interaction score>
0.194

$$$$
>  <binder>
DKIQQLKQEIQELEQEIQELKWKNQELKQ [4H2576-bN]

>  <interaction score>
0.0924

$$$$

(I) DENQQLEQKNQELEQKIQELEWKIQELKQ [4H1446-bN]
(II) DKIQQLKQEIQELEQKNQELEWEIQELKQ [4H2610-bN]
# input Please indicate which has the smaller reported interaction score: I , or II . Pick one; state its label.
# output I
